system: MS2 coat protein; test: apparent KD of MS2 coat protein; designed switch direction (-1 OFF switch, 1 ON switch): 1; higher = weaker reporter binding; conditions: input ligand: none
Measurement kind: apparent KD of MS2 coat protein (nM)
Answers are plain numbers, in nM.

Here are 4 sequences together with their reported answers.
[
  {
    "Entry sequence": "GUAAUAAUGUAAGGAUAUACAUGAGGAUUUCUCGUAGAAGGUACAAGACAUGAGGAUCACCCAUGUGUCGCUCCGUAGAGCGUA [Mat - Same State NG 1 - JL mod - D15] (Eterna round: R96, puzzle: Same State NG 1)",
    "apparent KD of MS2 coat protein [nM]": 448
  },
  {
    "Entry sequence": "UGGUACAUGGGAGGAUAUGGAGUGAUGACAUGAGGAUCACCCAUGUUAUAAAUGCCGAGAGGCAACUAGAAGGCCCAUGUACCU [JL SSNG1 3.95] (Eterna round: R96, puzzle: Same State NG 2)",
    "apparent KD of MS2 coat protein [nM]": 149
  },
  {
    "Entry sequence": "GAGGGACAGACCAACAUGAGGAUCACCCAUGUCCUCGCAGGUCAGGAUAUCCGUCCAACAGGCAAGGAGAAGGGACGGUGAACC (Eterna round: R96, puzzle: Same State NG 3)",
    "apparent KD of MS2 coat protein [nM]": 724
  },
  {
    "Entry sequence": "AUAGUUGCCGAAGGAUAUGAUGAGGAUCACCCAUCAGAAGGUUGGCUAUUGGGUGGACAUGAGGAUCACCCAUGUCCUUUGGUU (Eterna round: R96, puzzle: Same State NG 1)",
    "apparent KD of MS2 coat protein [nM]": 113
  }
]

Any idea what its apparent KD of MS2 coat protein is? The sequence is GGUGGGUUACUACCCACACAUGAGGAUCACCCAUGUAUUGGGAAGGAUAUGGUACCUAUUUGGUACCAGAAGGUCCUGAUGGUG [SS-NG3-LRO15] (Eterna round: R96, puzzle: Same State NG 3)
1610

====

system: MS2 coat protein; experiment: apparent KD of MS2 coat protein, switch ON state; designed switch direction (-1 OFF switch, 1 ON switch): -1; higher = weaker reporter binding; settings: FMN input: 0 or 200 uM; Eterna round: R93 (includes R88 designs)
Please go through the items and note down their apparent KD of MS2 coat protein.
Express the reported value numerically, then name its unit.

Consider the reported apparent KD of MS2 coat protein for these sequences:
[
  {
    "Entry sequence": "AGCUAGUCAGGAUAUACGAGAAUGAAAGAAGACGUGAAGGGACAUGAGGAUCACCCAUGUAGAAGGGACUAGCA [Diamond 25]",
    "apparent KD of MS2 coat protein": "36.1 nM"
  },
  {
    "Entry sequence": "AAACCACAUGAGGAUCACCCAUGUAAGGAUAUGAACGAAAAUAAAUAAAAAUAAAAGUUCAGAAGGUACAAAAA [66%, Wbt, 22]",
    "apparent KD of MS2 coat protein": "26.3 nM"
  },
  {
    "Entry sequence": "AAGAACGUAGGAUAUACAUGAGGAUCACCCAUGUAAAAGAAAGAAGGGAAAGAGAAAAGUAGAAGGACGAAGAA [Wahkare Bakenrenef]",
    "apparent KD of MS2 coat protein": "21.6 nM"
  },
  {
    "Entry sequence": "AAAAAGUGAGGAUAUACAUGAGGAUCACCCAUGUGAAGGGAAGAAAGAAAGAAAGAAAGUAGAAGGCACAAAAA [Default title]",
    "apparent KD of MS2 coat protein": "51.1 nM"
  },
  {
    "Entry sequence": "AACAAGACAGGAUAUACAUGAGGAUCACCCAUGUCACAACAAAGCAGCGCAACACAAAGUAGAAGGGUCAUGAA [Ruby 12]",
    "apparent KD of MS2 coat protein": "45.1 nM"
  }
]

I need apparent KD of MS2 coat protein for every entry listed below, if you could help.
1. AAAGAUGGAGGAUAUACAUGAGGAUCACCCAUGUGGAAAAAAAAUUGGGAAAAAGAAAGUAGAAGGCCAAAAAA [Ex 3 May 42]
2. AAAGAUACAGGAUAUACAUGAGGAUCACCCAUGUGGAACCAAAAAUGGGAAAAAGAAAGUAGAAGGGUAUAAAA [Ex 3 May 37]
3. CAUAAACAUGAGGAUCACCCAUGUGAGGAUAUGAUAUUACUAGGACGGCUGUAAUCAAUCAGAAGGCACAUCAA [JR_Exc--1_Sub1206]

["48.1 nM", "38.8 nM", "22.5 nM"]
